- Target under test: MvicOBP3 (Megoura viciae, UniProt A0A0S2E5N6)
- Sequence (A0A0S2E5N6 2-122): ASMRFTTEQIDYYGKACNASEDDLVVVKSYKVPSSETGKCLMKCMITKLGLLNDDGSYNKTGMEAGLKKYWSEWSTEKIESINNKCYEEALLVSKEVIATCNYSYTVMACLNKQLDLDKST
- Procedure details: Competitive fluorescence binding assay (NPN displacement)
- Protocol: Proteins were dissolved in 20 mM Tris-HCl buffer pH 7.4 and emission fluorescence spectra were recorded on a LS50 Luminescence Spectrometer (PerkinElmer, Buckinghamshire, UK) at 22 °C in a right angle configuration, with a 1 cm light path quartz cuvette and 5–10 nm slits for excitation and emission. […] The probe was excited at 337 nm and emission spectra were recorded between 380 and 450 nm. […]
pKi: −log10 of the molar value.

| Compound | pKi |
| --- | --- |
| C=C1CCC2CC1C2(C)C (stereo not drawn) [β-pinene] | 5.64 |

###

Let's look at some compounds and their measured pKi.
- Target under test: NribOBP3 (Nasonovia ribisnigri)
- Sequence (A0A0M4AUH6 1-119): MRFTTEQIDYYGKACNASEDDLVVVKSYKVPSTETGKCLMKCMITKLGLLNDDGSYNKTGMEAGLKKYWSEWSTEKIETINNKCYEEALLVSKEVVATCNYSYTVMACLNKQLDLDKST
- Procedure details: Competitive fluorescence binding assay (NPN displacement)
- Conditions: displacement of NPN (2 μM) from NribOBP3/NPN complex, one site competitive binding model; read-out: Competitive inhibitor binding constant (Ki)
pKi: −log10 of the molar value.

| Compound | pKi |
| --- | --- |
| C=CC(=C)CC/C=C(\C)CCC=C(C)C [(E)-β-farnesene] | 5.28 |
| CC1=CCC2CC1C2(C)C (stereo not drawn) [(−)-α-pinene] | 4.69 |

Data origin, for the record: paper PMC4840437
